- test-system: ABL1 SH3 (Homo sapiens, UniProt P00519)
- Sequence (P00519 60-121): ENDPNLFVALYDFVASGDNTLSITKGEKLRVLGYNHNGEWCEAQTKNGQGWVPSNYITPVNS
- procedure-details: GenVar_HD2 ProP-PD phage selection, ABL1 SH3
- Format: binding
- condition-description: True/False if a mutated peptide was found in selection
endpoint: mutant_found

Guide cases for mutant_found, answers given:
KPPEEPGQCPAPEELPLFPPTGEPSLSPLLGEPALSEPGEP [O14686.P886T]; FALSE
KPPEEPGQCPAPEELPLFPPSGEPSLSPLLGEPALSEPGEP [O14686.P886S]; TRUE
HYLDLLALLLDSSEPRFSPPLSPPGPCMPEVFLEAAVALIQ [O15287.P386L]; TRUE
HYLDLLALLLDSSEPRFSPPHSPPGPCMPEVFLEAAVALIQ [O15287.P386H]; TRUE

Below: the item to evaluate.
Query block: Item under review: LSPVRSPTPPAAGFQPLLNGRLVPVPPTTPAPGVQLDVEAL [B1AK53.S719R] . Reported mutant_found?
Result block: FALSE

###

- test-system: MAP1LC3B ATG8 (Homo sapiens, UniProt Q9GZQ8)
- procedure-details: Isothermal titration calorimetry, MAP1LC3B ATG8
- Format: binding
- condition-description: ITC; average of the Kd [µM] column; wild-type technical duplicate, mutant technical triplets; read-out: Average Kd
endpoint: Kd (µM)
Give just the number in µM; leave the unit off.

Query block: Item under review: Ac-EDEVYETVVDTSEEDS-NH2 [BRCA2_292-307 wild-type] . Reported Kd?
Result block: 64

###

- test-system: KPNA4 ARM minor (Homo sapiens, UniProt O00629)
- Sequence (O00629 68-487): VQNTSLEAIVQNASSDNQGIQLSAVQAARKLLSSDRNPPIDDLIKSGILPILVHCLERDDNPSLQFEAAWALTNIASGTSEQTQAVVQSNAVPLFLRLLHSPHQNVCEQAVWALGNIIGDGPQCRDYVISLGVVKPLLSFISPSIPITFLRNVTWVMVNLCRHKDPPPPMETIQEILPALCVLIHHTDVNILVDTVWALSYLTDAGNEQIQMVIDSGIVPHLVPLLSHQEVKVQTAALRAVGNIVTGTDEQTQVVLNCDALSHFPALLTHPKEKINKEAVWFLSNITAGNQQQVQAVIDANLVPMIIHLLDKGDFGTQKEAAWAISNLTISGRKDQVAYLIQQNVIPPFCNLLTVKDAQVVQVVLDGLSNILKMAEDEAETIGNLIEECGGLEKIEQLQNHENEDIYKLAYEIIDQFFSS
- procedure-details: FP displacement assay, KPNA4 ARM minor pocket
- Format: binding
- condition-description: read-out: KD-values [µM] + SEM
endpoint: Kd (µM)
Give just the number in µM; leave the unit off.

Query block: Item under review: Ac-PELWVAHRTAQHLSAT-NH2 [ZNF526_152-167 L160T] . Reported Kd?
Result block: 395

###

Measured max_wildtype_confidence by item
- test-system: ABL1 SH3 (Homo sapiens, UniProt P00519)
- procedure-details: GenVar_HD2 ProP-PD phage selection, ABL1 SH3
- Format: binding
- condition-description: maximum confidence for an enriched wild type peptide
Respond numerically, and do not add a unit to the figure.

HYLDLLALLLDSSEPRFSPPHSPPGPCMPEVFLEAAVALIQ [O15287.P386H]; 4
LSPVRSPTPPAAGFQPLLNGRLVPVPPTTPAPGVQLDVEAL [B1AK53.S719R]; 2
KPPEEPGQCPAPEELPLFPPSGEPSLSPLLGEPALSEPGEP [O14686.P886S]; 3
HYLDLLALLLDSSEPRFSPPLSPPGPCMPEVFLEAAVALIQ [O15287.P386L]; 4

Below: the item to evaluate.
Query block: Hi! What's the reported max_wildtype_confidence for KPPEEPGQCPAPEELPLFPPTGEPSLSPLLGEPALSEPGEP [O14686.P886T] on ABL1 SH3 (Homo sapiens, UniProt P00519)?
Result block: 3

###

Measured replicates by item
- test-system: ABL1 SH3 (Homo sapiens, UniProt P00519)
- procedure-details: GenVar_HD2 ProP-PD phage selection, ABL1 SH3
- Assay type: binding
- condition-description: phage selection, bait ABL1_SH3__P00519_60_121; replicates in which the peptide was found

Guide cases for replicates, answers given:
LDSSEPRFSPPLSPPG; 1
NGSLVPVPPTTPAPGV; 4

Query block: Hi! What's the reported replicates for "EPRFSPPHSPPGPAMP" on ABL1 SH3 (Homo sapiens, UniProt P00519)?
Result block: 5

Query block: Hi! What's the reported replicates for "EPRFSPPPSPPGPAMP" on ABL1 SH3 (Homo sapiens, UniProt P00519)?
Result block: 6

Query block: Hi! What's the reported replicates for "PLFPPPGEPSLSPLLG" on ABL1 SH3 (Homo sapiens, UniProt P00519)?
Result block: 6
